The reported numbers originate from PubChem BioAssay AID2060901.

Test system: 422866-222-R5-J1-PDC complex spheroids viability
Test: Anticancer human tumor 422866-222-R5-J1-PDC patient-derived pancreatic adenocarcinoma cell line growth inhibition [RAS]
Details: second compound 1 µM; first compound 0.316 µM; stronger effect = lower value
viability, T/C for assorted compounds
Parameter measured: viability, T/C (%)

• CC1(O)CCCC1n1c(=O)c(C(F)F)cc2cnc(NC3CCN(S(C)(=O)=O)CC3)nc21 (stereo not given) + C#Cc1c(F)ccc2cc(O)cc(-c3ncc4c(N5CC6CCC(C5)N6)nc(OCC56CCCN5CC(F)C6)nc4c3F)c12 = 42.2
• C=CC(=O)Nc1cc(Nc2nccc(-c3cn(C)c4ccccc34)n2)c(OC)cc1N(C)CCN(C)C + C=CC(=O)N1CCN(c2nc(OCC3CCCN3C)nc3c(F)c(-c4nc(N)cc(C)c4C(F)(F)F)c(Cl)cc23)C(C)C1 = 18.6
• NC1c2ccccc2OC12CCN(c1cnc3c(N4CCCc5ncccc54)n[nH]c3n1)CC2 (stereo not given) + C#Cc1c(F)ccc2cc(O)cc(-c3ncc4c(N5CC6CCC(C5)N6)nc(OCC56CCCN5CC(F)C6)nc4c3F)c12 = 25.2
• O=C(c1ccc(F)c(F)c1Nc1ccc(I)cc1F)N1CC(O)([C@@H]2CCCCN2)C1 + C#Cc1c(F)ccc2cc(O)cc(-c3ncc4c(N5CC6CCC(C5)N6)nc(OCC56CCCN5CC(F)C6)nc4c3F)c12 = 26.9
• CC(Nc1ccc2c(c1)OCCn1cc(N3C(=O)OCC3C(F)F)nc1-2)C(N)=O (stereo not given) + C=CC(=O)N1CCN(c2nc(OCC3CCCN3C)nc3c(F)c(-c4nc(N)cc(C)c4C(F)(F)F)c(Cl)cc23)C(C)C1 = 9.93

---

Test system: 422866-222-R5-J1-PDC complex spheroids viability
Experiment: Anticancer human tumor 422866-222-R5-J1-PDC cell line growth inhibition [RAS];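 note: spheroids exposed to compounds for 7 days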
Conditions: curve of first compound; second compound 0.003 µM
pIC50: −log10 of the molar value.
pIC50 for assorted compounds
Parameter measured: pIC50

- O=C(c1ccc(F)c(F)c1Nc1ccc(I)cc1F)N1CC(O)([C@@H]2CCCCN2)C1 + CCn1c(-c2cccnc2C(C)OC)c2c3cc(ccc31)N1CCOC(CC(NC(=O)C(C(C)C)N(C)C(=O)C3(F)CCN(C(=O)C#CC(C)(C)N(C)C)CC3)C(=O)N3CCCC(N3)C(=O)OCC(C)(C)C2)C1: > 8.50
- CC(=O)OC12COC1CC(O)C1(C)C(=O)C(O)C3=C(C)C(OC(=O)C(O)C(NC(=O)OC(C)(C)C)c4ccccc4)CC(O)(C(OC(=O)c4ccccc4)C21)C3(C)C (configuration not stated) + CCn1c(-c2cccnc2C(C)OC)c2c3cc(ccc31)N1CCOC(CC(NC(=O)C(C(C)C)N(C)C(=O)C3(F)CCN(C(=O)C#CC(C)(C)N(C)C)CC3)C(=O)N3CCCC(N3)C(=O)OCC(C)(C)C2)C1: > 7.50

---

System: 422866-222-R5-J1-PDC complex spheroids viability
Test: Anticancer human tumor 422866-222-R5-J1-PDC cell line growth inhibition [RAS];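 note: spheroids exposed to compounds for 7 days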;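 for viability, T/C: 100% = DMSO vehicle control viability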
Conditions: second compound 0.000949 µM; first compound 0.00949 µM; stronger effect = lower value
viability, T/C for assorted compounds
Parameter measured: viability, T/C (%)

• CC1(C)CCC(Nc2ncc(C(F)(F)F)c(-c3c[nH]c4c(P(C)(C)=O)c(C#N)ccc34)n2)CN1 (centres undefined) + CCn1c(-c2cccnc2C(C)OC)c2c3cc(ccc31)N1CCOC(CC(NC(=O)C(C(C)C)N(C)C(=O)C3(F)CCN(C(=O)C#CC(C)(C)N(C)C)CC3)C(=O)N3CCCC(N3)C(=O)OCC(C)(C)C2)C1 = 30.9
• CC1(C)CCC(Nc2ncc(C(F)(F)F)c(-c3c[nH]c4c(P(C)(C)=O)c(C#N)ccc34)n2)CN1 (centres undefined) + CCn1c(-c2cc(N3CCN(C)CC3)cnc2C(C)OC)c2c3cc(ccc31)-c1csc(n1)CC(NC(=O)C1CC1C)C(=O)N1CCCC(N1)C(=O)OCC(C)(C)C2 = 32.5
• CCc1c2c(nc3ccc(O)cc13)-c1cc3c(c(=O)n1C2)COC(=O)[C@]3(O)CC + CCn1c(-c2cc(N3CCN(C)CC3)cnc2C(C)OC)c2c3cc(ccc31)-c1csc(n1)CC(NC(=O)C1CC1C)C(=O)N1CCCC(N1)C(=O)OCC(C)(C)C2 = 21.6
• CCc1c2c(nc3ccc(O)cc13)-c1cc3c(c(=O)n1C2)COC(=O)[C@]3(O)CC + CCn1c(-c2cccnc2C(C)OC)c2c3cc(ccc31)N1CCOC(CC(NC(=O)C(C(C)C)N(C)C(=O)C3(F)CCN(C(=O)C#CC(C)(C)N(C)C)CC3)C(=O)N3CCCC(N3)C(=O)OCC(C)(C)C2)C1 = 26.9

---

viability, T/C for assorted compounds
System: 422866-222-R5-J1-PDC complex spheroids viability
Test: Anticancer human tumor 422866-222-R5-J1-PDC cell line growth inhibition [RAS];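 note: spheroids exposed to compounds for 7 days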;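 for viability, T/C: 100% = DMSO vehicle control viability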
Settings: second compound 0.3 µM; first compound 0.1 µM; stronger effect = lower value
Parameter measured: viability, T/C (%)

• CCN1CCN(Cc2ccc(Nc3ncc(F)c(-c4cc(F)c5nc(C)n(C(C)C)c5c4)n3)nc2)CC1 + CCn1c(-c2cccnc2C(C)OC)c2c3cc(ccc31)N1CCOC(CC(NC(=O)C(C(C)C)N(C)C(=O)C3(F)CCN(C(=O)C#CC(C)(C)N(C)C)CC3)C(=O)N3CCCC(N3)C(=O)OCC(C)(C)C2)C1 = 17.1
• CCC(CC)c1cc(NC2CCC(N)C2)n2nccc2n1 (centres undefined) + CCn1c(-c2cc(N3CCN(C)CC3)cnc2C(C)OC)c2c3cc(ccc31)-c1csc(n1)CC(NC(=O)C1CC1C)C(=O)N1CCCC(N1)C(=O)OCC(C)(C)C2 = 22.3
• CC(=O)OC12COC1CC(O)C1(C)C(=O)C(O)C3=C(C)C(OC(=O)C(O)C(NC(=O)OC(C)(C)C)c4ccccc4)CC(O)(C(OC(=O)c4ccccc4)C21)C3(C)C (centres undefined) + CCn1c(-c2cccnc2C(C)OC)c2c3cc(ccc31)N1CCOC(CC(NC(=O)C(C(C)C)N(C)C(=O)C3(F)CCN(C(=O)C#CC(C)(C)N(C)C)CC3)C(=O)N3CCCC(N3)C(=O)OCC(C)(C)C2)C1 = 17.9
• CC(C)n1nc(-c2ccc3oc(N)nc3c2)c2c(N)ncnc21 + CCn1c(-c2cccnc2C(C)OC)c2c3cc(ccc31)N1CCOC(CC(NC(=O)C(C(C)C)N(C)C(=O)C3(F)CCN(C(=O)C#CC(C)(C)N(C)C)CC3)C(=O)N3CCCC(N3)C(=O)OCC(C)(C)C2)C1 = 10.2

---

Tested on: 422866-222-R5-J1-PDC complex spheroids viability
Assay: Anticancer human tumor 422866-222-R5-J1-PDC cell line growth inhibition [RAS];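 note: spheroids exposed to compounds for 7 days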;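 for viability, T/C: 100% = DMSO vehicle control viability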
Conditions: second compound 0.0949 µM; first compound 1 µM; stronger effect = lower value
Parameter measured: viability, T/C (%)

• Nc1ccn(C2OC(CO)C(O)C2(F)F)c(=O)n1 (configuration not stated) + CCn1c(-c2cc(N3CCN(C)CC3)cnc2C(C)OC)c2c3cc(ccc31)-c1csc(n1)CC(NC(=O)C1CC1C)C(=O)N1CCCC(N1)C(=O)OCC(C)(C)C2 = 16.4
• NC1c2ccccc2OC12CCN(c1cnc3c(N4CCCc5ncccc54)n[nH]c3n1)CC2 (configuration not stated) + CCn1c(-c2cccnc2C(C)OC)c2c3cc(ccc31)N1CCOC(CC(NC(=O)C(C(C)C)N(C)C(=O)C3(F)CCN(C(=O)C#CC(C)(C)N(C)C)CC3)C(=O)N3CCCC(N3)C(=O)OCC(C)(C)C2)C1 = 13

---

viability, T/C for assorted compounds
Tested on: 422866-222-R5-J1-PDC complex spheroids viability
Experiment: Anticancer human tumor 422866-222-R5-J1-PDC cell line growth inhibition [RAS];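 note: spheroids exposed to compounds for 7 days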;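 for viability, T/C: 100% = DMSO vehicle control viability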
Conditions: second compound 0.316 µM; first compound 0.0316 µM; stronger effect = lower value
Excerpt: RAS pathway inhibitors in Combinations in Complex Spheroids A high-throughput screen of multi-cell type tumor spheroids was designed to identify active combinations of RAS pathway inhibitors and targeted small molecules. Complex spheroids include a stromal component modeled by human endothelial cells (HUVEC) and fibroblasts modeled by human mesenchymal stem cells (MSCs). […] Compounds. […] If the clinical Cmax for an agent had not been determined, the highest concentration tested was 10 microM. […]
Parameter measured: viability, T/C

• CC(=O)OC12COC1CC(O)C1(C)C(=O)C(O)C3=C(C)C(OC(=O)C(O)C(NC(=O)OC(C)(C)C)c4ccccc4)CC(O)(C(OC(=O)c4ccccc4)C21)C3(C)C (centres undefined) + C#Cc1c(F)ccc2cc(O)cc(-c3ncc4c(N5CC6CCC(C5)N6)nc(OCC56CCCN5CC(F)C6)nc4c3F)c12 = 55.7%
• O=C(c1ccc(F)c(F)c1Nc1ccc(I)cc1F)N1CC(O)([C@@H]2CCCCN2)C1 + C=CC(=O)N1CCN(c2nc(OCC3CCCN3C)nc3c(F)c(-c4nc(N)cc(C)c4C(F)(F)F)c(Cl)cc23)C(C)C1 = 20.1%
• C[C@@H](NC(=O)c1ncnc(N)c1Cl)c1ncc(C(=O)Nc2cc(C(F)(F)F)c(Cl)cn2)s1 + C#Cc1c(F)ccc2cc(O)cc(-c3ncc4c(N5CC6CCC(C5)N6)nc(OCC56CCCN5CC(F)C6)nc4c3F)c12 = 68.8%
• CC(=O)OC12COC1CC(O)C1(C)C(=O)C(O)C3=C(C)C(OC(=O)C(O)C(NC(=O)OC(C)(C)C)c4ccccc4)CC(O)(C(OC(=O)c4ccccc4)C21)C3(C)C (centres undefined) + C=CC(=O)N1CCN(c2nc(OCC3CCCN3C)nc3c(F)c(-c4nc(N)cc(C)c4C(F)(F)F)c(Cl)cc23)C(C)C1 = 15.3%
